# key: entry, value: Optical Density (OD)
- test.system: chimeric CD1a pool B protein [human CD1a lipid binding domain, mouse CD1d Ig domain] (human; mouse, UniProt P06126 18-201; P11609 205-297, limits assumed)
- Sequence (P06126 other isoform, or with tags, fused parts or gaps mutant limits assumed): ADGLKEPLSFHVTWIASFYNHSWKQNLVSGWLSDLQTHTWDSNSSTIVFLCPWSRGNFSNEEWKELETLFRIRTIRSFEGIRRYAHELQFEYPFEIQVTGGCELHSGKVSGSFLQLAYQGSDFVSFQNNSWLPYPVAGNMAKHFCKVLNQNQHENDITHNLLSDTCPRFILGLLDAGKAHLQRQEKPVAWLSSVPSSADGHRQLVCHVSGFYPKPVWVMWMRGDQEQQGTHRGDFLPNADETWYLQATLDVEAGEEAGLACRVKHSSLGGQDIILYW
- test.summary: ELISA, 10 µg/ml antibody
reported.property: Optical Density (OD)

>>> recorded_value("77A (VR11851) (antibody, V domains shown, also called OX77a; antibody 77a) VH: QSVEESGGRLVTPGTPLTLTCTVSGFSLSSYAMSWVRQAPGKGLEWIGIISSSGTTYYASWAKGRFTISKTSTTVDLKITSPTTEDTATYFCARVDYYSSGWGGLWGPGTLVTVSS VL: AVEMTQTPASMSAAVGGTVTIKCQASEDIYSNLAWYQQKPGQPPKLLIYGASTLASGVPSRFKGSGSGTEYTLTISGVQCDDAATYYCQCTYDTSSYGNTFGGGTEMVVE")
"1.31 OD"
>>> recorded_value("110 (VR12112) (antibody, V domains shown, also called OX110; antibody 110) VH: QSVEESGGRLVTPGTPLTLTCTVSGFSLSSYAMIWVRQAPGKGLEWIGIINSSDNTHYATWAKGRFTISKTSTTVDLKITSPTTEDTATYFCARDPYDYGYGWYFDLWGPGTLVTVSS VL: AQVLTQTPSPVSAAVGGTVTINCQASQSVFNNKNLAWYQQKPGQPPKLLIYKASTLASGVSSRFKGSGSGTQFALTISGVQCDDAATYYCQGEFSCSSTDCVTFGGGTEVVVK")
"1.46 OD"
>>> recorded_value("111 (VR12113) (antibody, V domains shown, also called OX111) VH: QSVEESGGRLVTPGTPLTLTCTASGFSLSTYAMSWVRQAPGKGLEWIGIISSSGSTYYASWAKGRFTISKTSTTVDLKITSPTTEDTATYFCARETWYWLDLWGQGTLVTVSS VL: AVEMTQTPASVSAAVGGTVTINCQASEDIYSNLAWYQQKPGQPPKLLIYGASTLASGVPSRFKGSGSGTEYTLTISGVQCDDAATYYCQCAYDSSSYGTPFGGGTEVVVK")
"1.4 OD"
>>> recorded_value("116 (VR12117) (antibody, V domains shown, also called OX116) VH: QSVEESGGRLVTPGTPLTLTCTVSGFSLSNYAMSWVRQAPGKGLEWIGIIYTTGFTYYASWVKGRFTISKTSTTVDLKITSPTTEDTATYFCARGLATYVSPPTRLDLWGQGTLVTVSS VL: AQVLTQTPSPVSAAVGGTVTINCQASQSIYNSKNLAWYQQKPGQPPKLLIYSASTLASGVPSRFKGSGSGTQFTLTISDLECDDAATYYCQGEFSCSSVDCATFGGGTEVVVK")
"1.4 OD"
